- Test system: L1210 leukemia ip in BDF1 mice, survival T/C
- Method Summary: NCI In Vivo Anticancer Drug Screen. Data for tumor model L1210 Leukemia (intraperitoneal) in B6D2F1 (BDF1) mice
- Condition Notes: endpoint: mean survival time; dose: 75.0 mg/kg/injection; schedule: Q01DX001 (ip); vehicle: other; higher = longer survival
Toxic doses and inconclusive results are not listed.
Measured T/C values are reported for all entries that follow.

Compound: O=C(CCl)c1c(O)cc(O)cc1O
T/C: 106 % of control
--
Compound: Nc1nc2ncc(CCNc3ccc(C(=O)NC(CCC(=O)O)C(=O)O)cc3)nc2c(=O)[nH]1 (centres undefined)
T/C: 104 % of control
--
Compound: c1ccc(-c2cnc3nc4ccccc4nc3n2)cc1
T/C: 87 % of control
--
Compound: [Cu+2].[Cu+2].[O-]CCCN=Cc1ccccc1[O-].[O-]CCCN=Cc1ccccc1[O-]
T/C: 97 % of control

Hello, the source for this data is PubChem BioAssay AID248, in case you need it.
